Reported values: pIC50 for Receptor tyrosine-protein kinase erbB-2 (Homo sapiens, UniProt P04626), one per item.
In plain terms, pIC50 is the concentration in mol/L turned into minus its base-10 logarithm.

smiles_repr=O=C(Nc1ccccc1)N(Cc1ccc(F)cc1)Cc1cccc(Br)c1O target="Receptor tyrosine-protein kinase erbB-2 (Homo sapiens, UniProt P04626)" measurement=5.29
smiles_repr=O=C(Nc1ccccc1)N(Cc1ccc(F)cc1)Cc1cc(Cl)cc(Cl)c1O target="Receptor tyrosine-protein kinase erbB-2 (Homo sapiens, UniProt P04626)" measurement=5.02
smiles_repr=Oc1c(Cl)cccc1CN(Cc1ccc(F)cc1)C(=S)Nc1ccccc1 target="Receptor tyrosine-protein kinase erbB-2 (Homo sapiens, UniProt P04626)" measurement=5.85

Look up pIC50 for this molecule: Oc1ccc(CN(Cc2cc(Br)cc(Br)c2O)C(=S)Nc2ccccc2)cc1
5.65

Then Oc1ccc(CN(Cc2cc(Cl)cc(Cl)c2O)C(=S)Nc2ccccc2)cc1 ?
5.91

Same read-out for Cc1cc(C)c(O)c(CN(Cc2ccc(F)cc2)C(=S)Nc2ccccc2)c1 ?
4.42

Also need Oc1ccc(CN(Cc2cccc(Br)c2O)C(=S)Nc2ccccc2)cc1 , thanks.
6.18

Request: Oc1ccc(CN(Cc2cccc(Cl)c2O)C(=S)Nc2ccccc2)cc1
6.46

Same lookup for CCCCN(Cc1cccc(Cl)c1O)C(=S)Nc1ccccc1 , please.
4.49

// same read-out, input: O=C(Nc1ccccc1)N(Cc1ccc(O)cc1)Cc1cccc(Cl)c1O
5.64

Now try Cc1cccc(CN(Cc2ccc(O)cc2)C(=O)Nc2ccccc2)c1O .
4.73

How about this molecule: O=C(Nc1ccccc1)N(Cc1ccc(O)cc1)Cc1cc(Br)cc(Br)c1O
5.34

Also, CCCCN(Cc1cccc(Br)c1O)C(=S)Nc1ccccc1 please.
4.40

###

Epidermal growth factor receptor (Homo sapiens) measurements of pIC50, listed per entry.
In textbook form, pIC50 equals minus log to base ten of the concentration in mol/L.

smiles_repr=CCCCN(Cc1cc(Br)cc(Br)c1O)C(=S)Nc1ccccc1 target="Epidermal growth factor receptor (Homo sapiens)" measurement=4.50
smiles_repr=O=C(Nc1ccccc1)N(Cc1ccc(O)cc1)Cc1cccc(Cl)c1O target="Epidermal growth factor receptor (Homo sapiens)" measurement=6.02
smiles_repr=O=C(Nc1ccccc1)N(Cc1ccc(F)cc1)Cc1cc(Br)cc(Br)c1O target="Epidermal growth factor receptor (Homo sapiens)" measurement=5.33
smiles_repr=CCCCN(Cc1cccc(C)c1O)C(=S)Nc1ccccc1 target="Epidermal growth factor receptor (Homo sapiens)" measurement=4.36

Field request: pIC50 | item: Cc1cc(C)c(O)c(CN(Cc2ccc(O)cc2)C(=O)Nc2ccccc2)c1
5.03

One more molecule: Cc1cccc(CN(Cc2ccc(O)cc2)C(=O)Nc2ccccc2)c1O
5.12

Can you check CCCCN(Cc1cccc(Cl)c1O)C(=O)Nc1ccccc1 next?
4.49

Repeat with CCCCN(Cc1cccc(Cl)c1O)C(=S)Nc1ccccc1
4.74

// next record Oc1ccc(CN(Cc2cccc(Br)c2O)C(=S)Nc2ccccc2)cc1
6.92

Same again, this time with Cc1cc(C)c(O)c(CN(Cc2ccc(F)cc2)C(=O)Nc2ccccc2)c1
4.56

###

Quick list: IC50 per entry.
- target: Epidermal growth factor receptor (Homo sapiens, UniProt P00533)
- Sequence (P00533 whole entry): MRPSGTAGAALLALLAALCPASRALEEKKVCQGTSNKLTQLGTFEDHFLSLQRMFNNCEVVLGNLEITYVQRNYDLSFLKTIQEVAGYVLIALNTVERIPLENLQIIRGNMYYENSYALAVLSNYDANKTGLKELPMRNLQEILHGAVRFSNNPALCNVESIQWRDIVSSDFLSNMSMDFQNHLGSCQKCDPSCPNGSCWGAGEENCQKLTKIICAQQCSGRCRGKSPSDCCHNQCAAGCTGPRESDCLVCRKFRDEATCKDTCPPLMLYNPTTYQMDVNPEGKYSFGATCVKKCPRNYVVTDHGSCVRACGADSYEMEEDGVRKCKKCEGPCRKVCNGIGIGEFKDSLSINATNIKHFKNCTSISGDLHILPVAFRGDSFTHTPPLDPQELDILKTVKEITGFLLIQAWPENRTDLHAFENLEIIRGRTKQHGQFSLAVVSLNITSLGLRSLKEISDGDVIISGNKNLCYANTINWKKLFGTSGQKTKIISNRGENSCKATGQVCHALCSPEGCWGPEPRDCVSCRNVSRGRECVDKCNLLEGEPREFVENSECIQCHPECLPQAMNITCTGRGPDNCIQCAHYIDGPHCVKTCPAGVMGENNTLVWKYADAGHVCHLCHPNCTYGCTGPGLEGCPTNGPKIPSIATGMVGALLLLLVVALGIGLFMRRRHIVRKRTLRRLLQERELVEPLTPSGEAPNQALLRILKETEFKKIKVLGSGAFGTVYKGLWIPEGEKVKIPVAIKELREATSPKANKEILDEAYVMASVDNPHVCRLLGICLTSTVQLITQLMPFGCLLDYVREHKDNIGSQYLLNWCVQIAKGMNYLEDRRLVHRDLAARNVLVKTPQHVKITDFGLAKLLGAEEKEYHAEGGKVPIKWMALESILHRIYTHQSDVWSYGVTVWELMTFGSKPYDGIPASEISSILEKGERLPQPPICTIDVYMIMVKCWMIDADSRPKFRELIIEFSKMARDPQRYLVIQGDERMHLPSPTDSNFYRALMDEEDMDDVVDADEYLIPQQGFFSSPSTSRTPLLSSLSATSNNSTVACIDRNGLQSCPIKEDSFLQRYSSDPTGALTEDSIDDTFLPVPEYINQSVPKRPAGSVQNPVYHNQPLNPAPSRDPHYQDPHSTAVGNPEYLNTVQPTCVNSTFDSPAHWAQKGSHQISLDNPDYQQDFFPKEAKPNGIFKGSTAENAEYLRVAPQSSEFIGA
- protocol: biochemical
- Description: Inhibition of cloned EGFR autophosphorylation expressed in baculovirus-infected Sf9 cells by solid-phase ELISA
Kindly answer with a numeric value in µM, unit omitted.

smiles_repr=O=C(Nc1ccccc1)N(Cc1ccc(F)cc1)Cc1cccc(Br)c1O target="Epidermal growth factor receptor (Homo sapiens, UniProt P00533)" unit_string=µM measurement=2.24
smiles_repr=Oc1ccc(CN(Cc2cc(Br)cc(Br)c2O)C(=S)Nc2ccccc2)cc1 target="Epidermal growth factor receptor (Homo sapiens, UniProt P00533)" unit_string=µM measurement=0.87

Proceeding to the next compound to report its IC50.
// map Oc1ccc(CN(Cc2cccc(Cl)c2O)C(=S)Nc2ccccc2)cc1 to recorded IC50 (system: Epidermal growth factor receptor (Homo sapiens, UniProt P00533))
0.08
